assayed system: UniProt P37231
Sequence (P37231 whole entry): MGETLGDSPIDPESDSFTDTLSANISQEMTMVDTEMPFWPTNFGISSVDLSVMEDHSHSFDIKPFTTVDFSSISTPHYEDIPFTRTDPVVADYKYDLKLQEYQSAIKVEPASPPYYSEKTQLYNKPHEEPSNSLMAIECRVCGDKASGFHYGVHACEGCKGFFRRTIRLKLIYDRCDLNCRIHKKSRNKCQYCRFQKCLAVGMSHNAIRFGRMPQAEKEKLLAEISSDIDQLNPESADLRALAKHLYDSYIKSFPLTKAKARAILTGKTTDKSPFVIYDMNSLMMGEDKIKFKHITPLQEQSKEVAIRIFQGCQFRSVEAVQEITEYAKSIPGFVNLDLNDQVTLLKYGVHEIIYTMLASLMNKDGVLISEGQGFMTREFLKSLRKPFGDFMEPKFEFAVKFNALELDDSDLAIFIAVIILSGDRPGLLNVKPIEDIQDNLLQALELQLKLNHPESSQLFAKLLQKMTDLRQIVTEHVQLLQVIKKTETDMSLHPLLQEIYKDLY
readout name: pKd
Quick note: pKd values are minus log10 of concentrations in mol/L.

Input: Test system UniProt P37231; read-out pKd; what value for Cc1c(O)cc(O)c2c(-c3ccccc3)c(C(=O)/C=C/c3ccccc3)c(=O)oc12 [MD001] ?
Output: 6.85

All figures here come from paper PMC6367362.
